assay: Phase 1 crossover study: AZD5718 plasma pharmacokinetics; type: in vivo, human; details: human, plasma, oral, 200 mg, AZD5718 AUC0-inf, arithmetic mean (SD), 200 mg tablet, fasted, n = 10
PROPERTY LABEL: AUC(0-inf) (µM·h)
Provide only the numeric value, understood in µM·h.

Query :: What value of measured AUC(0-inf) is listed for Cc1cc(-c2ccc(C(=O)[C@@H]3CCCC[C@H]3C(=O)Nc3cnn4c3C(=O)NCC4)cc2)n[nH]1 ?
Result :: 3.62

---

assay: Phase 1 crossover study: rosuvastatin plasma pharmacokinetics; assay type: in vivo, human; conditions: human, plasma, oral, 10 mg, rosuvastatin 10 mg plus AZD5718 200-mg tablet, fasted, n = 10; read-out: Rosuvastatin AUC0-inf, arithmetic mean (SD)
PROPERTY LABEL: AUC(0-inf) (ng·h/mL)
A number alone suffices; assume ng·h/mL.

Query :: Quick one: AUC(0-inf) for CC(C)c1nc(N(C)S(C)(=O)=O)nc(-c2ccc(F)cc2)c1/C=C/[C@@H](O)C[C@@H](O)CC(=O)O ?
Result :: 56.9
